Molecular target: recombinant human SK1 (Homo sapiens, UniProt Q9NYA1)
Construct: purchased BPS Biosciences
Sequence (Q9NYA1 whole entry): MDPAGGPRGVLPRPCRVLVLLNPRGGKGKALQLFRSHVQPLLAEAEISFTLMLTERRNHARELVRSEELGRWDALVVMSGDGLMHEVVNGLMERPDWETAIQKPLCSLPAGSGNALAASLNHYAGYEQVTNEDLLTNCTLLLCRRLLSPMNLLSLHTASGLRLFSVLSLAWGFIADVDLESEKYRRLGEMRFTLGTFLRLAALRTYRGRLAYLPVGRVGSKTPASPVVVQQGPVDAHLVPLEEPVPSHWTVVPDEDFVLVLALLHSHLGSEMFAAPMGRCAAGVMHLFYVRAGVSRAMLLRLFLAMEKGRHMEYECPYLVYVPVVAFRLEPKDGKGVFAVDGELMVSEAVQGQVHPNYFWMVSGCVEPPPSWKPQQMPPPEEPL
Assay: SK activity assay, recombinant human SK1 (ADP-Quest; HPLC assay for SKI-II)
Type: biochemical
Details: recombinant human SK1; mean ± SEM of three independent experiments; ADP-Quest (SKI-II: HPLC assay)
assay-endpoint: Ki (nM)

A. O=C(NCCc1ccc(O)c(O)c1)C12CC3CC(C1)CC(c1ccc(Cl)cc1)(C3)C2
B. CC(=O)N(C1=C(Cl)C(=O)c2ccccc2C1=O)C1CCCCC1
Task for the reader: decide whether A or B has the larger Ki. I would appreciate it if you answered with the label of your choice.
A

====

Molecular target: recombinant human SK2 (Homo sapiens, UniProt Q9NRA0)
Construct: purchased BPS Biosciences
Sequence (Q9NRA0 whole entry): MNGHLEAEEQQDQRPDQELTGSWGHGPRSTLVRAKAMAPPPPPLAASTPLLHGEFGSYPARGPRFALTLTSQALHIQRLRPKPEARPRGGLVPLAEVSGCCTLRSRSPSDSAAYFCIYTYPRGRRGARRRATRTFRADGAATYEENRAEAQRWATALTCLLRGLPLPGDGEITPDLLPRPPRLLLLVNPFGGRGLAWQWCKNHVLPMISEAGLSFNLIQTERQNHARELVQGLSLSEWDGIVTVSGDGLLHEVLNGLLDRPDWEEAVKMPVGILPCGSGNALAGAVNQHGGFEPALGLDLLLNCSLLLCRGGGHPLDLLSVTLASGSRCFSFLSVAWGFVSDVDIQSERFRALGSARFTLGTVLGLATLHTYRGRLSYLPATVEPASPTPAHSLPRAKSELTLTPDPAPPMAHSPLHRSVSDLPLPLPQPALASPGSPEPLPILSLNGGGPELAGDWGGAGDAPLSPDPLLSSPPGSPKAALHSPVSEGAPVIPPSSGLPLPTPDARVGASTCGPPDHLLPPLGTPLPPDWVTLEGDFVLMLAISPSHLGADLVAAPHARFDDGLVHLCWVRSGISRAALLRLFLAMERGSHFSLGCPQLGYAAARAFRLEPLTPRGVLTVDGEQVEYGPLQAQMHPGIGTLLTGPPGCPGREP
Assay: SK activity assay, recombinant human SK2 (ADP-Quest; HPLC assay for SKI-II)
Assay type: biochemical
Conditions: recombinant human SK2; mean ± SEM of three independent experiments; ADP-Quest (SKI-II: HPLC assay)
assay-endpoint: Ki (µM)

>>> measurement("Oc1ccc(Nc2nc(-c3ccc(Cl)cc3)cs2)cc1 [SKI-II, reference compound]")
7.9
>>> measurement("CCCCCCCCCCCCC/C=C/[C@@H](O)[C@H](CO)N(C)C [DMS, N,N-dimethyl-D-erythro-sphingosine, reference compound]")
14

1. O=C(NCc1ccncc1)C12CC3CC(C1)CC(c1ccc(Cl)cc1)(C3)C2
2. O=C(NCCc1ccc(O)c(O)c1)C12CC3CC(C1)CC(c1ccc(Cl)cc1)(C3)C2
Task for the reader: decide whether 1 or 2 has the larger Ki. I would appreciate it if you answered with the label of your choice.
1
(1: 9.3 µM, 2: 4.2 µM)

Data origin: paper PMC3438171
